Biological target: β-secretase(BACE) (Homo sapiens, UniProt P56817)
Construct: purchased Panvera
Sequence (P56817 46-501): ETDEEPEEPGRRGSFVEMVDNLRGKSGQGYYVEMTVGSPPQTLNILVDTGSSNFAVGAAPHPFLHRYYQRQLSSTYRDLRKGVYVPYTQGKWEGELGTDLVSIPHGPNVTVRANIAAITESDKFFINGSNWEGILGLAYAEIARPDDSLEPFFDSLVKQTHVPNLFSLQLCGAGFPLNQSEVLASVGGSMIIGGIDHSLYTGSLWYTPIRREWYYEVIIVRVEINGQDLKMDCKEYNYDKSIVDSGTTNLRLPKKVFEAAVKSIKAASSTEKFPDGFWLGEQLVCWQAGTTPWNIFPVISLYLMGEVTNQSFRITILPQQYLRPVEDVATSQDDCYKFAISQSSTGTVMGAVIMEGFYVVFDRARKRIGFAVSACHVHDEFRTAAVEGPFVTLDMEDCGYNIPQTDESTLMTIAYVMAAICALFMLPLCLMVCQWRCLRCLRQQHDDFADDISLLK
Assay: BACE Assay-1 (MCA-substrate, IC50)
Type: biochemical
Details: procedure of Example 158; read-out: IC50 μM (158)
measured_quantity: IC50

NC1=Nc2ccc(Oc3ccccc3)cc2CN1C(CNC(=O)CC1CCCC1)C1CCCCC1 (centres unmarked) | 0.02 µM

Read the entry CN(C(=O)CCN1Cc2cc(C(=O)c3ccccc3)ccc2N=C1N)C12CC3CC(CC(C3)C1)C2 and write its reported IC50. 5.1 µM

Read the entry CCCN1Cc2cc(Oc3cccc(NS(=O)(=O)c4ccc(NC(C)=O)cc4)c3)ccc2N=C1N and write its reported IC50. > 10 µM

Read the entry CCCN1Cc2cc(Oc3cccc(NS(=O)(=O)Cc4ccccc4)c3)ccc2N=C1N and write its reported IC50. 0.35 µM

Read the entry CCN(C(=O)CCN1Cc2cc(C(=O)c3ccc(F)cc3)ccc2N=C1N)C1CCCCC1 and write its reported IC50. 9.1 µM

Read the entry CCOC(=O)N1CCC(N2Cc3cc(Oc4cccc(NS(=O)(=O)c5c(C)cc(C)cc5C)c4)ccc3N=C2N)CC1 and write its reported IC50. 0.53 µM

Read the entry CCCN1Cc2cc(Oc3cccc(C(=O)NCc4c(C)cc(C)cc4C)c3)ccc2N=C1N and write its reported IC50. 5.8 µM

Read the entry COc1cccc(-c2ccc3c(c2)CN(Cc2cccc(C(=O)N(C)C4CCCCC4)c2)C(N)=N3)c1 and write its reported IC50. 0.19 µM

Every entry's value here was drawn from patent US8383637B2.
